Quick reference: GI50 of the listed items.
target: Ba/F3 cells, ABL1 WT (Homo sapiens, UniProt P00519); test: 96-well XTT cell survival assay, Ba/F3 ABL1 WT; assay type: cell-based; conditions: 72 hours, read-out: ABL1 WT XTT [Ba/F3] IC50
Sequence (P00519 whole entry, change not shown): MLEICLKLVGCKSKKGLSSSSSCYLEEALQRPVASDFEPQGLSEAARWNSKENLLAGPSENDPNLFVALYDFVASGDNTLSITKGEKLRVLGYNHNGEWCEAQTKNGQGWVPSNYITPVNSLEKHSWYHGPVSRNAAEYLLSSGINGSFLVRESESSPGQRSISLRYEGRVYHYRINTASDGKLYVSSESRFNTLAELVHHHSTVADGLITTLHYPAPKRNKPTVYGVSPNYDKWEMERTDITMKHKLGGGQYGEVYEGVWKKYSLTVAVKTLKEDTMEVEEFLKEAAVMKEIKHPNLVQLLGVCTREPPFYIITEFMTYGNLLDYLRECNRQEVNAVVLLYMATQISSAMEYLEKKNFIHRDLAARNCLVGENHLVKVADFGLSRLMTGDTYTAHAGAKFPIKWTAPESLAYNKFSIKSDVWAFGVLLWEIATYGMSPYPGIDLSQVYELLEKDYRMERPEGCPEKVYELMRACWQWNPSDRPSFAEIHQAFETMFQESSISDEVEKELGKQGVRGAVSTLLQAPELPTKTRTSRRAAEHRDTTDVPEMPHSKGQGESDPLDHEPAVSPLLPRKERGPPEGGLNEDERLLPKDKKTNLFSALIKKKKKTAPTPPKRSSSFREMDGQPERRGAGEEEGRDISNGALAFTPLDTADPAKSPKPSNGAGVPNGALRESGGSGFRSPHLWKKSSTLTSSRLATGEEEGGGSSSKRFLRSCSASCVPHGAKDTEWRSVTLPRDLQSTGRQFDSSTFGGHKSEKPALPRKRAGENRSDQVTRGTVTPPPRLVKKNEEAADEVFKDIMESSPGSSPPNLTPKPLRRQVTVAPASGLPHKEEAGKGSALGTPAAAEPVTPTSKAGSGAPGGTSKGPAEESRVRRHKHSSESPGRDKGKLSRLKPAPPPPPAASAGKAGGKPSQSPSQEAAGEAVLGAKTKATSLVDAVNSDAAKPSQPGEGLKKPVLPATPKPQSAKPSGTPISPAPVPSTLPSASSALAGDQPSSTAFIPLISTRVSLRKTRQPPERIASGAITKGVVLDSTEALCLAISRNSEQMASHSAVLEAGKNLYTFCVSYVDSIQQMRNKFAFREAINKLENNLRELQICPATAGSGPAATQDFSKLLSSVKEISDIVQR

{"compound": "COc1ccccc1-c1c[nH]c2ncc(-c3cccc(C(C(=O)N(C)C)N4CCNCC4)c3)cc12 (stereo not drawn)", "tested_system": "Ba/F3 cells, ABL1 WT (Homo sapiens, UniProt P00519)", "GI50": "> 1000 nM"}
{"compound": "COc1ccccc1-c1n[nH]c2ncc(-c3cccc(C(O)C(=O)N(C)CCN(C)C)c3)cc12 (stereo not drawn)", "tested_system": "Ba/F3 cells, ABL1 WT (Homo sapiens, UniProt P00519)", "GI50": "< 1000 nM"}
{"compound": "CN(C)C(=O)C(O)c1cncc(-c2cnc3[nH]cc(-c4ccc(F)cc4)c3c2)c1 (stereo not drawn)", "tested_system": "Ba/F3 cells, ABL1 WT (Homo sapiens, UniProt P00519)", "GI50": "> 1000 nM"}
{"compound": "COc1ccccc1-c1c[nH]c2ncc(-c3cncc(C(O)C(=O)N(C)C(C)C)c3)cc12 (stereo not drawn)", "tested_system": "Ba/F3 cells, ABL1 WT (Homo sapiens, UniProt P00519)", "GI50": "> 1000 nM"}
{"compound": "COc1ccccc1-c1n[nH]c2ncc(-c3cccc(C(O)C(=O)N(C)Cc4ccco4)c3)cc12 (stereo not drawn)", "tested_system": "Ba/F3 cells, ABL1 WT (Homo sapiens, UniProt P00519)", "GI50": "> 1000 nM"}
{"compound": "CN(C)C(=O)C(O)c1cncc(-c2cnc3[nH]cc(-c4ccccc4Cl)c3c2)c1 (stereo not drawn)", "tested_system": "Ba/F3 cells, ABL1 WT (Homo sapiens, UniProt P00519)", "GI50": "< 1000 nM"}
{"compound": "COc1ccccc1-c1n[nH]c2ncc(-c3cccc(C(C)C(=O)N4CCC(N(C)C)CC4)c3)cc12 (stereo not drawn)", "tested_system": "Ba/F3 cells, ABL1 WT (Homo sapiens, UniProt P00519)", "GI50": "< 1000 nM"}
{"compound": "COc1ccccc1-c1c[nH]c2ncc(-c3cc(C(O)C(=O)N(C)C)ncn3)cc12 (stereo not drawn)", "tested_system": "Ba/F3 cells, ABL1 WT (Homo sapiens, UniProt P00519)", "GI50": "> 1000 nM"}
{"compound": "COc1ccccc1-c1n[nH]c2ncc(-c3cncc(C(O)C(=O)N(C)C)c3)cc12 (stereo not drawn)", "tested_system": "Ba/F3 cells, ABL1 WT (Homo sapiens, UniProt P00519)", "GI50": "< 1000 nM"}

---

Quick reference: GI50 of the listed items.
target: Ba/F3 cells, ABL1 WT (Homo sapiens, UniProt P00519); test: 96-well XTT cell survival assay, Ba/F3 ABL1 WT; assay type: cell-based; details: 72 hours, read-out: ABL1 WT XTT [Ba/F3] IC50

{"molecule": "COc1ccccc1-c1n[nH]c2ncc(-c3cccc([C@@H](O)[C@H](O)C(C)C)c3)cc12", "GI50": "< 1000 nM"}
{"molecule": "CN(C)C(=O)C(O)c1cncc(-c2cnc3[nH]cc(-c4cccc(S(C)(=O)=O)c4)c3c2)c1 (stereo not drawn)", "GI50": "> 1000 nM"}
{"molecule": "COc1ccccc1-c1c[nH]c2ncc(-c3cccc(C(N)C(=O)N(C)C)c3)cc12 (stereo not drawn)", "GI50": "< 1000 nM"}
{"molecule": "COc1ccccc1-c1c[nH]c2ncc(-c3cc(C(O)C(=O)N(C)C)ccn3)cc12 (stereo not drawn)", "GI50": "> 1000 nM"}
{"molecule": "COc1ccccc1-c1n[nH]c2ncc(-c3cccc(C(C)O)c3)cc12 (stereo not drawn)", "GI50": "< 1000 nM"}
{"molecule": "CN(C)C(=O)C(O)c1cncc(-c2cnc3[nH]cc(-c4ccc(OC(F)(F)F)cc4)c3c2)c1 (stereo not drawn)", "GI50": "> 1000 nM"}
{"molecule": "COc1ccccc1-c1n[nH]c2ncc(-c3cccc(C(O)C(=O)N4CCC(O)C4)c3)cc12 (stereo not drawn)", "GI50": "> 1000 nM"}
{"molecule": "Cc1cccc(-c2c[nH]c3ncc(-c4cncc(C(O)C(=O)N(C)C)c4)cc23)c1 (stereo not drawn)", "GI50": "< 1000 nM"}
{"molecule": "COc1ccccc1-c1c[nH]c2ncc(-c3cc(C(C#N)C(=O)N(C)C)ncn3)cc12 (stereo not drawn)", "GI50": "> 1000 nM"}
{"molecule": "COc1ccccc1-c1n[nH]c2ncc(-c3cccc(C(O)C(=O)N(C)C4CCN(C)C4)c3)cc12 (stereo not drawn)", "GI50": "< 1000 nM"}
{"molecule": "CC[C@H](O)[C@@H](O)c1cccc(-c2cnc3[nH]cc(-c4ccccc4OC)c3c2)c1", "GI50": "< 1000 nM"}
{"molecule": "COc1ccc(-c2c[nH]c3ncc(-c4cncc(C(O)C(=O)N(C)C)c4)cc23)cc1 (stereo not drawn)", "GI50": "> 1000 nM"}
{"molecule": "CN(C)C(=O)C(O)c1cncc(-c2cnc3[nH]cc(-c4ccnn4C)c3c2)c1 (stereo not drawn) [drawing 464]", "GI50": "> 1000 nM"}
{"molecule": "COc1ccccc1-c1n[nH]c2ncc(-c3cccc(C(C)(O)C(=O)N(C)CCN(C)C)c3)cc12 (stereo not drawn)", "GI50": "> 1000 nM"}
{"molecule": "COc1ccccc1-c1c[nH]c2ncc(-c3cccc(C(O)C(=O)N(C)CCN(C)C)n3)cc12 (stereo not drawn)", "GI50": "> 1000 nM"}
{"molecule": "COc1ccccc1-c1n[nH]c2ncc(-c3cccc(C(O)C(=O)N(C)CCO)c3)cc12 (stereo not drawn)", "GI50": "< 1000 nM"}
{"molecule": "COc1ccccc1-c1c[nH]c2ncc(-c3cccc(C(O)C(=O)N(C)Cc4ccnn4C)c3)cc12 (stereo not drawn)", "GI50": "< 1000 nM"}
{"molecule": "COc1ccccc1-c1n[nH]c2ncc(-c3cccc(C(N)C(=O)N(C)C)c3)cc12 (stereo not drawn)", "GI50": "< 1000 nM"}
